Collected z-score values appear next to each entry.
Molecular target: Metabotropic glutamate receptor 8 (Rattus norvegicus) (UniProt P70579)
Sequence (P70579 whole entry, looked up): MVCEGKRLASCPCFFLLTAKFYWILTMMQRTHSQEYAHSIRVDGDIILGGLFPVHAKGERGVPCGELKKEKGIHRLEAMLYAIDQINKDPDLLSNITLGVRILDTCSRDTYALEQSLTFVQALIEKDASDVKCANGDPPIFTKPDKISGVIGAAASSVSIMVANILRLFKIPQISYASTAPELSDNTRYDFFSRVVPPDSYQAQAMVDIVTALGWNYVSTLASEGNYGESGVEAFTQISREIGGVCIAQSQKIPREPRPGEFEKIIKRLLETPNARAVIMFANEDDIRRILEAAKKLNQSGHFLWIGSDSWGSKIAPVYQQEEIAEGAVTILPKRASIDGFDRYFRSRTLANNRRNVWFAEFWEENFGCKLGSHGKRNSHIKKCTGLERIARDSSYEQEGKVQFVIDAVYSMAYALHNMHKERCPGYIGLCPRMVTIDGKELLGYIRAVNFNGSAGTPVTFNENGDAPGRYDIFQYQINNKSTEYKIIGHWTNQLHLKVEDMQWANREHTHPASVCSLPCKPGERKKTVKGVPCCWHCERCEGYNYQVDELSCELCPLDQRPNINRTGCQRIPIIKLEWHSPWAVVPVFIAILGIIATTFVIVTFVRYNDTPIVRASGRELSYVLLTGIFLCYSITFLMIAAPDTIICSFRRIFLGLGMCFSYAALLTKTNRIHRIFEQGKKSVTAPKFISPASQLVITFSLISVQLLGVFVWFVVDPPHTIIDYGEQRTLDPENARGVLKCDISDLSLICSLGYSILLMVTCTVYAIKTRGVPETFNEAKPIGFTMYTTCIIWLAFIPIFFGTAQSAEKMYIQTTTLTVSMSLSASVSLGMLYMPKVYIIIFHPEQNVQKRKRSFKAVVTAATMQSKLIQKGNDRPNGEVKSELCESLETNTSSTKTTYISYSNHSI
Assay: mGluR8 Gi/Go-coupled signaling modulation – cell-based, rat, thallium flux, HTS, primary screen (AID 488969)
Settings: HEK293 rat mGluR8, GIRK thallium flux, FluoZin2; at 10 µM; stronger effect = higher value; submaximal glutamate (EC20) added with thallium
Over roughly 110,000 compounds, “z-score” has its median near -0.1; the highest 2% begin near 2. This excerpt belongs to a sample that is enriched for the highest values. Active and inactive are the calls of the source.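 The calls were made as follows: active = z-score in the third read window above 3 or below -3; inactive = the rest.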

Some entries whose results are on file:
In [3]: df
Out[3]:
                                   compound                               measured_on  observed
0  COc1cc(CNc2nc(C)c([N+](=O)[O-])c(C)c2C#N)cc(OC)c1  Metabotropic glutamate receptor 8 (Rattus norvegicus) (UniProt P70579)     -0.18
1  Cc1ccc2cccc(N=Cc3c(C)[nH]n(-c4ccccc4)c3=O)c2n1  Metabotropic glutamate receptor 8 (Rattus norvegicus) (UniProt P70579)     0.282
2  CCCc1nc2ccccc2c(=O)n1/N=C/c1c(C)[nH]n(-c2ccc(C)cc2)c1=O  Metabotropic glutamate receptor 8 (Rattus norvegicus) (UniProt P70579)      1.38
3  Cc1[nH]n(-c2ccccc2)c(=O)c1C=Nc1cccc2cccnc12  Metabotropic glutamate receptor 8 (Rattus norvegicus) (UniProt P70579)     0.652
4  Cc1ccc(-n2[nH]c(C)c(/C=N/n3c(C)nc4ccccc4c3=O)c2=O)cc1  Metabotropic glutamate receptor 8 (Rattus norvegicus) (UniProt P70579)     0.177

Input `Cc1ccc(-n2[nH]c(C)c(C=Nc3ccc(S(=O)(=O)Nc4nccs4)cc3)c2=O)cc1` . Output z-score: -0.363

Input `Cc1ccc(-n2[nH]c(C)c(C=Nc3cc(C)ccn3)c2=O)cc1` . Output z-score: 10.6 (active)

* * *

Target: Metabotropic glutamate receptor 8 (Rattus norvegicus) (UniProt P70579)
Experiment: mGluR8 Gi/Go-coupled signaling modulation – cell-based, rat, thallium flux, HTS, primary screen (AID 488969)
Settings: HEK293 rat mGluR8, GIRK thallium flux, FluoZin2; at 10 µM; stronger effect = higher value; submaximal glutamate (EC20) added with thallium
The full ranking holds about 110,000 compounds; the median of “z-score” is about -0.1, and the highest 2% start at about 2. This is one part of a sample in which the highest values are shown more often than they occur.
Measurement Type: z-score
Give your answer as a number; write no unit.

>>> print(df.to_string())
                                   compound  observed
0  COCCNC(=O)c1onc(CSc2ccc(C)c(C)c2)c1C(=O)O   -0.0285
1         NCCCCCc1nnc(SCc2ccc(Cl)c(Cl)c2)o1      0.93
2  O=C(Cn1cc(C(F)(F)F)cc(Cl)c1=O)NCCc1ccccc1    -0.155
3    CCOC(=O)c1cnn2c(C)cc(-c3ccc(F)cc3)nc12    -0.151

Per the reported Metabotropic glutamate receptor 8 (Rattus norvegicus) (UniProt P70579) data, COC(=O)C1=C(C)N(C)C(=O)NC1c1ccccc1 (configuration not stated) has z-score of -0.573

Per the reported Metabotropic glutamate receptor 8 (Rattus norvegicus) (UniProt P70579) data, `COC(=O)CSc1nc(NC#N)nc(NC(C)C)n1` has z-score of -0.00648

Per the reported Metabotropic glutamate receptor 8 (Rattus norvegicus) (UniProt P70579) data, `NCCCCCc1nnc(SCc2ccccc2Cl)o1` has z-score of 1.74

* * *

Biological target: Metabotropic glutamate receptor 8 (Rattus norvegicus) (UniProt P70579)
Assay: mGluR8 Gi/Go-coupled signaling modulation – cell-based, rat, thallium flux, HTS, primary screen (AID 488969)
Conditions: HEK293 rat mGluR8, GIRK thallium flux, FluoZin2; at 10 µM; stronger effect = higher value; submaximal glutamate (EC20) added with thallium
In all, about 110,000 compounds were measured (“z-score”: median about -0.1, highest 2% from about 2 on). The sample holds the highest values, similar compounds and a random draw of the others, so the mix is not that of the screen.
Class key for z-score values: band A = under -0.2, band B = from -0.2 up to 0.3, band C = 0.3 and over

Before answering, review these 2 worked examples.
                             compound   group
0    Cc1ccc(N2CN=C(c3ccccc3)NC2=S)cc1  band C
1  Cc1ccccc1NC(=O)NCCc1nc2ccccc2[nH]1  band B

Here is the next item to consider.
Prompt: Class for `Cc1ccc(NC(=S)c2nc3ccccc3[nH]2)c(C)c1` ?
Completion: band C

* * *

Target: Metabotropic glutamate receptor 8 (Rattus norvegicus) (UniProt P70579)
Experiment: mGluR8 Gi/Go-coupled signaling modulation – cell-based, rat, thallium flux, HTS, primary screen (AID 488969)
Conditions: HEK293 rat mGluR8, GIRK thallium flux, FluoZin2; at 10 µM; stronger effect = higher value; submaximal glutamate (EC20) added with thallium
In all, about 110,000 compounds were measured (“z-score”: median about -0.1, highest 2% from about 2 on). What follows is part of a selection rich in the highest values, with near analogues and random picks from the rest.
Class key for z-score values: lo: < -0.1; mid: ≥ -0.1 and < 0.3; hi: ≥ 0.3

Before answering, review these 8 worked examples.
>>> df
                                   compound  group
0  CCN(C(=O)CSc1ncccc1C(=O)OC(C)C)c1cccc(C)c1     lo
1  COCCNC(=O)C(c1cccs1)N(C(=O)Cn1nnc2ccccc21)c1ccc(OC)cc1 (stereo not given)    mid
2  COCC(C)n1c(C)cc(C(=O)CSc2ccc(NC(C)=O)cc2)c1C (stereo not given)     hi
3  CCC(C)c1ccc(NC(=S)Nc2ccc(OC)c(OC)c2)cc1 (stereo not given)     hi
4  O=C(/C=C/c1ccc(S(=O)(=O)N2CCOCC2)cc1)NCc1ccccc1     lo
5      CCCOC(=O)c1ccc(NC(=O)c2ccc(Br)o2)cc1     lo
6    COc1cc(Nc2nc3ccccc3n3nnnc23)cc(OC)c1OC    mid
7      C/C(=N\NC(=S)NCCc1ccccc1)c1ccc(C)cc1     hi

Prompt: Class for CCC(C)c1ccc(NC(=S)Nc2ccc(OC)cc2)cc1 (stereo not given) ?
Completion: hi

Prompt: Class for `COc1cc(CN2CCN(c3cccc(Cl)c3)CC2)cc(OC)c1OC` ?
Completion: lo

Prompt: Class for `C=CCNC(=S)NNC(=O)COc1c(Cl)cc(Cl)cc1Cl` ?
Completion: hi

* * *

Collected z-score values appear next to each entry.
Biological target: Metabotropic glutamate receptor 8 (Rattus norvegicus)
Assay: mGluR8 Gi/Go-coupled signaling modulation – cell-based, rat, thallium flux, HTS, primary screen (AID 488969)
Details: HEK293 rat mGluR8, GIRK thallium flux, FluoZin2; at 10 µM; stronger effect = higher value; submaximal glutamate (EC20) added with thallium
Over roughly 110,000 compounds, “z-score” has its median near -0.1; the highest 2% begin near 2. Only a selection was taken, and the highest values are over-represented in it overall.
Give your answer as a number; write no unit.

Some entries whose results are on file:
>>> print(df.to_string())
                                   compound  measurement_type  observed
0                    Cc1ccc(SCCCn2cncn2)cc1           z-score   -0.0811
1  NS(=O)(=O)c1ccc(CCN2C(=O)/C(=C\c3ccc(Cl)cc3)SC2=S)cc1           z-score     0.283
2  c1ccc(C2(c3ccccc3)OCC(Cn3cncn3)O2)cc1 (stereo not drawn)           z-score     0.218

Input `Cc1cc(/N=C/N(C)C)on1` . Output z-score: -0.0351

Input `CCCc1nn(C)c2c(=O)[nH]c(-c3ccccc3OCC)nc12` . Output z-score: -0.237

* * *

Biological target: Metabotropic glutamate receptor 8 (Rattus norvegicus)
Assay: mGluR8 Gi/Go-coupled signaling modulation – cell-based, rat, thallium flux, HTS, primary screen (AID 488969)
Details: HEK293 rat mGluR8, GIRK (G protein-gated inwardly rectifying potassium channel) thallium flux, FluoZin2; at 10 µM; stronger effect = higher value; submaximal glutamate (EC20) added with thallium
Whole data set: some 110,000 compounds, median “z-score” near -0.1, cut for the highest 2% near 2. What follows is part of a selection rich in the highest values, with near analogues and random picks from the rest.
Label rule, in plain words: z-score of -0.1 and up is satisfied, under -0.1 is not satisfied.

Before answering, review these 10 worked examples.
>>> df
                                   compound                               measured_on          group
0  COC(=O)c1cc(OC)c(OC)cc1NCC(=O)Nc1ccc(OC)c(OC)c1  Metabotropic glutamate receptor 8 (Rattus norvegicus)  not satisfied
1  Cc1cccc(C(=O)NCCc2nnc(SCC(=O)Nc3nc(C)cs3)n2C)c1  Metabotropic glutamate receptor 8 (Rattus norvegicus)      satisfied
2  Cc1ccccc1N1C(=O)C(Oc2ccc(Cl)cc2)C1CNCCCOC(C)C (configuration not stated)  Metabotropic glutamate receptor 8 (Rattus norvegicus)      satisfied
3  O=C(NC(=S)N1CCOCC1)C12CC3CCC(CC(C3)C1)C2  Metabotropic glutamate receptor 8 (Rattus norvegicus)      satisfied
4  CCCn1nc2cc(C(=O)NCCc3ccc(C)cc3)ccc2c1OCC  Metabotropic glutamate receptor 8 (Rattus norvegicus)      satisfied
5  CCCCn1nc2cc(C(=O)NCCc3ccc(C)cc3)ccc2c1OCC  Metabotropic glutamate receptor 8 (Rattus norvegicus)  not satisfied
6     CC(=O)c1cn(CC(=O)NCc2cccnc2)c2ccccc12  Metabotropic glutamate receptor 8 (Rattus norvegicus)      satisfied
7         Cn1c(SCc2ccc(Br)cc2)nnc1-c1ccncc1  Metabotropic glutamate receptor 8 (Rattus norvegicus)  not satisfied
8  O=C(Nc1ccccc1N1CCN(c2ccc(F)cc2)CC1)C12CC3CC(CC(C3)C1)C2  Metabotropic glutamate receptor 8 (Rattus norvegicus)  not satisfied
9  O=C(CCN1C(=O)c2ccccc2C1=O)Nc1ccc(-c2nc3ccccc3o2)cc1  Metabotropic glutamate receptor 8 (Rattus norvegicus)      satisfied

Here is the next item to consider.
Prompt: Could you verify whether the entry `CC(C)(C)C(=O)NC(=S)N1CCOCC1` shows z-score of no less than -0.1?
Completion: satisfied
